Assay: Acute toxicity
Parameters: species or system mice
Settings: mouse, in vivo, iv, single dose, mortality within 7 days
Measurement Label: LD50 at 168 h

Task: What value of LD50 at 168 h has been recorded for this entry: O=P(O)(O)C1CC(c2ccncc2)=NO1 (stereo not drawn) [Example 43]
Output: > 200 mg/kg

Task: Ok, now CN(C)P(=O)(C1CC(c2ccccc2)=NO1)N(C)C (stereo not drawn) [Example 59]
Output: > 200 mg/kg

Task: Ok, now CP(C)(=O)C1CC(c2ccccn2)=NO1 (stereo not drawn) [Example 105]
Output: > 100 mg/kg

Task: Ok, now CCOP(=O)(O)C1CC(c2ccc(OC)cc2)=NO1 (stereo not drawn) [Example 28]
Output: > 200 mg/kg

Task: Ok, now CCOP(=O)(C1CC(c2ccccc2)=NO1)N1CCCC1 (stereo not drawn) [Example 55]
Output: > 200 mg/kg

Task: Ok, now O=P(O)(O)C1CC(c2cccs2)=NO1 (stereo not drawn) [Example 75]
Output: > 100 mg/kg

Task: Ok, now COc1ccc(-c2cc(P(=O)(O)O)on2)cc1 [Example 54]
Output: > 200 mg/kg

Task: Ok, now COP(C)(=O)C1CC(c2ccccc2)=NO1 (stereo not drawn) [Example 13]
Output: > 200 mg/kg

Task: Ok, now O=P(O)(O)C1CC(c2ccccn2)=NO1 (stereo not drawn) [Example 42]
Output: > 200 mg/kg

---

Field: change in vivo at 35 mg/kg. Provide a value for each of the compounds that follow.
Tested on: active Arthus reaction
Assay: Active Arthus reaction in the rat
Format: in vivo, Sprague-Dawley rats
Details: Rattus norvegicus, po, 4 h, read-out: Active Arthus reaction % change
# value in %; strip the unit string

Task: What value of change in vivo at 35 mg/kg has been recorded for this entry: O=P(O)(O)C1CC(c2cccs2)=NO1 (stereo not shown) [Example 75]
Output: -26

Task: Ok, now CC(C)(C)C1=NOC(CP(C)(=O)O)C1 (stereo not shown) [Example 99]
Output: -32

Task: Ok, now CC(C)(C)c1cc(P(=O)(O)O)on1 [Example 77]
Output: -20

Task: Ok, now CP(=O)(O)C1CC(C(=O)O)=NO1 (stereo not shown) [Example 102]
Output: -35

---

Field: LD50 at 168 h. Provide a value for each of the compounds that follow.
Assay: Acute toxicity
Parameters: species or system mice
Details: mouse, in vivo, ip, single dose, mortality within 7 days

Task: What value of LD50 at 168 h has been recorded for this entry: CP(=O)(O)C1CC(c2cccc3ccccc23)=NO1 (stereo not drawn)
Output: 600 to 1200 mg/kg

Task: Ok, now O=P(O)(O)CC1CC(c2ccc(Cl)cc2)=NO1 (stereo not drawn)
Output: 150 to 300 mg/kg

Task: Ok, now CP(=O)(O)C1CC(c2ccccc2)=NO1 (stereo not drawn)
Output: 300 to 600 mg/kg

Task: Ok, now COc1ccc(C2=NOC(P(=O)(O)O)C2)cc1 (stereo not drawn)
Output: 300 to 600 mg/kg

Task: Ok, now CCOP(=O)(NCC(=O)OCc1ccccc1)C1CC(c2ccccc2)=NO1 (stereo not drawn)
Output: > 1200 mg/kg

Task: Ok, now O=P(O)(O)C1CC(c2cccc3ccccc23)=NO1 (stereo not drawn)
Output: 75 to 150 mg/kg
